Origin of the recorded values: ChEMBL document CHEMBL5226292

- Tested on: TSU
- protocol summary: Antiproliferative activity in human TSU cells assessed as cell growth inhibition
- Type: functional, cell-based
property measured: pIC50
Friendly reminder that pIC50 comes from taking -log10 of the concentration in mol/L.

Sample CCCCC/C=C\C/C=C\C/C=C\C/C=C\CCCC(=O)NCc1ccc(O)c(OC)c1 — what was its pIC50?
7.00
